Attribute: log fold change Tl+ flux
Tested on: R275C/beta2Delta
run description: modulators of BK channel variants, profiling panel, selectivity assay, cell-based, U2OS BacMam, thallium flux, beta subunits (AID 1259406);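 also: initial slope of Thallos dye fluorescence rise after thallium is added; log ratio against the mean of 0.3% DMSO vehicle wells on the same plate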
test context: at 30 µM
Lab note: record just the number, no unit beside it.

Some entries whose results are on file:
[[record]]
molecular_string = "Cc1ccccc1S(=O)(=O)NCc1ccc(N2CCN(C)CC2)cc1"
readout = "log fold change Tl+ flux"
obs_value = 0.0013

[[record]]
molecular_string = "CC(=O)[C@@]1(O)CC[C@H]2[C@@H]3C[C@H](C)C4=CC(=O)CC[C@]4(C)[C@H]3CC[C@@]21C"
readout = "log fold change Tl+ flux"
obs_value = -0.00744

[[record]]
molecular_string = "CCN(CC)C(=O)[C@]1(c2ccccc2)C[C@@H]1CN"
readout = "log fold change Tl+ flux"
obs_value = -0.0341

[[record]]
molecular_string = "N=C(N)Cc1c(Cl)cccc1Cl"
readout = "log fold change Tl+ flux"
obs_value = 0.028


Input COc1c(N2C[C@@H]3CCCN[C@@H]3C2)c(F)cc2c(=O)c(C(=O)O)cn(C3CC3)c12 . Output log fold change Tl+ flux: 0.0202
